The measurements presented in this section are drawn from ChEMBL document CHEMBL1152584.

- Subject of test: Glycine receptor subunit alpha-1 (Rattus norvegicus)
- Sequence (P07727 whole entry): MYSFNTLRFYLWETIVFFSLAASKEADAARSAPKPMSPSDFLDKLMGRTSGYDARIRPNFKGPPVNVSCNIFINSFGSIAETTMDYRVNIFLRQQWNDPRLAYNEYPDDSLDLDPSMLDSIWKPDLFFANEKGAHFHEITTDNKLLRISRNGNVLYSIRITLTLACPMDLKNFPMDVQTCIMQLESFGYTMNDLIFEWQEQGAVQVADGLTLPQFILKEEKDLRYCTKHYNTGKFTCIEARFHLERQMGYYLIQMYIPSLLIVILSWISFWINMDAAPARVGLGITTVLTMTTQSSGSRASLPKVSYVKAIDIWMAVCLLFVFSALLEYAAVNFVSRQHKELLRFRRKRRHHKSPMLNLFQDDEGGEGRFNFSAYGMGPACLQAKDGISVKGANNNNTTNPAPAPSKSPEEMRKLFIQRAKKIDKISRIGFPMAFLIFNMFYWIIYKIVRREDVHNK
- Measurement protocol: Displacement of [3H]strychnine from GlyR in Wistar rat spinal cord by scintillation spectrometry
pIC50: −log10 of the molar value.
Rule: pIC50 under 6 gives no, otherwise yes.

Determine whether measured pIC50 meets or exceeds 6 for CN1[C@@H]2CC[C@H]1C[C@H](OC(=O)c1cc3ccccc3[nH]1)C2
no

Determine whether measured pIC50 meets or exceeds 6 for O=C(O[C@H]1C[C@H]2CC[C@@H](C1)N2)c1cccs1
yes

Determine whether measured pIC50 meets or exceeds 6 for CN1[C@@H]2CC[C@H]1C[C@@H](OC(=O)c1cc3ccccc3n1C)C2
no

Determine whether measured pIC50 meets or exceeds 6 for CN1[C@@H]2CC[C@H]1C[C@@H](OC(=O)c1ccco1)C2
no

Determine whether measured pIC50 meets or exceeds 6 for CN1[C@@H]2CC[C@H]1C[C@@H](OC(=O)c1cccn1C)C2
no

Determine whether measured pIC50 meets or exceeds 6 for CN1[C@@H]2CC[C@H]1C[C@@H](OC(=O)c1cccs1)C2
no

Determine whether measured pIC50 meets or exceeds 6 for O=C(O[C@H]1C[C@H]2CC[C@@H](C1)N2)c1cccnc1
yes

Determine whether measured pIC50 meets or exceeds 6 for O=C(O[C@H]1C[C@H]2CC[C@@H](C1)N2)c1ccc[nH]1
yes

Determine whether measured pIC50 meets or exceeds 6 for CN1[C@@H]2CC[C@H]1C[C@@H](OC(=O)c1cnc3ccccc3c1)C2
no

Determine whether measured pIC50 meets or exceeds 6 for CN1[C@@H]2CC[C@H]1C[C@@H](OC(=O)c1cccnc1)C2
no
